Values of pIC50 for Proto-oncogene tyrosine-protein kinase receptor Ret (Homo sapiens), collected from a number of published sources:
pIC50: −log10 of the molar value.

Look over these answered cases.
{"entry.smiles": "O=C(c1cc(O)ccc1F)c1c[nH]c2ncc(-c3cccs3)cc12", "measured.value": "≥ 5.00"}
{"entry.smiles": "Cc1cc(Nc2cc(C)[nH]n2)nc([C@@]2(O)CC[C@H](C(=O)NCc3ccc(-n4cccn4)nc3)[C@H](C)C2)c1", "measured.value": "> 8.00"}

Now consider a different molecule.
Param request: pIC50 | system Proto-oncogene tyrosine-protein kinase receptor Ret (Homo sapiens) | item COc1ccc(CN(C)[C@H]2[C@@H]3CN(c4ccc(-c5cc(-c6cnn(C)c6)cn6ncc(C#N)c56)cn4)C[C@@H]32)cn1
≥ 8.00
